The origin of these recorded values is patent US20130243795A1.

- target entity: T1, Human CD27 ECD, monomeric soluble (construct limits not stated) (human, UniProt P26842 20-191)
- T1 construct: extracellular domain; target of the Biacore assays; also called monomeric soluble CD27; CD27-His
- T1 sequence (P26842 20-191): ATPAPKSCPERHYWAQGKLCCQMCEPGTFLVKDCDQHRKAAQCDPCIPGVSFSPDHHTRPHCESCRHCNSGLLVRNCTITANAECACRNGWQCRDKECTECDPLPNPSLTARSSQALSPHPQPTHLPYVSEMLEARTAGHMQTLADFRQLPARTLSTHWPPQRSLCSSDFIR
- protocol description: Biacore SPR, purified mAb
Exercise: for every item that follows, state its recorded kon.
Numbers only, in M⁻¹ s⁻¹.

Take a look at these entries with their results.
* M710 (antibody, V domains shown, also called single-gene DNA ID 710) VH: EVQLVQSGAEVKKPGESLKISCKGSGYAFSSSWMNWVRQMPGKGLEWMGRIYAGDADTNYAPSFQGQVTISADKSISTAYLQWSSLKASDTAMYYCARSDYYGDYGFAYWGQGTLVTVSS VL: DIVMTQSPDSLAVSLGERATINCKASQSVDYAGESFMNWYQQKPGQPPKLLIYAASNLESGVPDRFSGSGSGTDFTLTISSLQAEDVAVYYCQQSNEDPYTFGQGTKLEIK | 2.55e+06
* M709 (antibody, V domains shown, also called single-gene DNA ID 709) VH: EVQLVQSGAEVKKPGESLKISCKGSGYAFSSSWMNWVRQMPGKGLEWMGRIYAGDADTAYSPSFQGQVTISADKSISTAYLQWSSLKASDTAMYYCARSDYYGDYGFAYWGQGTLVTVSS VL: DIVMTQSPDSLAVSLGERATINCKASQSVDYAGESFMNWYQQKPGQPPKLLIYAASNLESGVPDRFSGSGSGTDFTLTISSLQAEDVAVYYCQQSNEDPYTFGQGTKLEIK | 2.3e+06
* M713 (antibody, V domains shown, also called single-gene DNA ID 713) VH: QVQLVQSGAEVKKPGASVKVSCKASGYAFSSSWMNWVRQAPGQGLEWMGRIYSGDADTNYAQKFKGRVTMTRDTSTSTVYMELSSLRSEDTAVYYCARSDYYGDYGFAYWGQGTLVTVSS VL: DIQMTQSPSSLSASVGDRVTITCKASQSVDYAGESFMNWYQQKPGKAPKLLIYAASNLESGVPSRFSGSGSGTDFTLTISSLQPEDFATYYCQQSNEDPYTFGQGTKVEIK | 206000

Lab note: next binder to report on.
Data point: M711 (antibody, V domains shown, also called single-gene DNA ID 711) VH: EVQLVQSGAEVKKPGESLKISCKGSGYAFSSSWMNWVRQMPGKGLEWMGRIYSGDADTNYNQKFKGQVTISADKSISTAYLQWSSLKASDTAMYYCARSDYYGDYGFAYWGQGTLVTVSS VL: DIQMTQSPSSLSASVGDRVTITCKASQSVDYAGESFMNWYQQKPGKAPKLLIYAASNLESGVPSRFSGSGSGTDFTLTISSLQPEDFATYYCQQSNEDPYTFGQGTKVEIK ; kon = 1.97e+06
